measurement.description: Antiproliferative activity against human HL60 cells after 24 hrs by Alamar blue assay
Assay type: functional, cell-based, HL-60
condition.description: Homo sapiens, HL-60, 24 h; read-out: IC50
quantity.name: IC50 (µM)

>>> experimental_result("CC(=O)N[C@@H](CO)C(=O)/C=C/c1ccc(-c2ccccc2)cc1")
50
>>> experimental_result("CCCCCCCCCCCCC/C=C/[C@@H](O)[C@H](CO)NC(C)=O")
26
>>> experimental_result("CCCCCCCCCCCCC/C=C/C(=O)[C@H](CO)NC(C)=O")
43
>>> experimental_result("CCCCCCCCc1ccc(/C=C/[C@@H](O)[C@H](CO)NC(C)=O)cc1")
11
>>> experimental_result("CC(=O)N[C@@H](CO)C(=O)/C=C/c1ccccc1")
48
